tested on: Mus musculus; experiment: Anticonvulsant activity in ip dosed albino mouse assessed as inhibition of subcutaneous pentylenetetrazole-induced seizure after 4 hrs; assay type: functional
Active and inactive are the calls of the source. The rule behind the calls is not given here.
QUANTITY_MEASURED: Activity

• CCc1nc2ccccc2c(=O)n1NC(=O)Nc1cccc(C)c1 = inactive
• O=C1NC(=O)C(c2ccccc2)(c2ccccc2)N1 = 300 mg/kg
• CCc1nc2ccccc2c(=O)n1NC(=O)Nc1ccc(Cl)cc1 = inactive
• CCc1nc2ccccc2c(=O)n1NC(=O)Nc1ccc([N+](=O)[O-])cc1 = inactive
• CCOc1ccc(NC(=O)Nn2c(CC)nc3ccccc3c2=O)cc1 = inactive

Now examine the next entry.
input: Lookup: Activity / Mus musculus / "CCc1nc2ccccc2c(=O)n1NC(=O)Nc1ccc(F)cc1"
output: inactive

Origin of values: ChEMBL document CHEMBL1155968
